# system under test: GSK3β (Homo sapiens, UniProt P49841)
# Sequence (P49841 whole entry, species assumed): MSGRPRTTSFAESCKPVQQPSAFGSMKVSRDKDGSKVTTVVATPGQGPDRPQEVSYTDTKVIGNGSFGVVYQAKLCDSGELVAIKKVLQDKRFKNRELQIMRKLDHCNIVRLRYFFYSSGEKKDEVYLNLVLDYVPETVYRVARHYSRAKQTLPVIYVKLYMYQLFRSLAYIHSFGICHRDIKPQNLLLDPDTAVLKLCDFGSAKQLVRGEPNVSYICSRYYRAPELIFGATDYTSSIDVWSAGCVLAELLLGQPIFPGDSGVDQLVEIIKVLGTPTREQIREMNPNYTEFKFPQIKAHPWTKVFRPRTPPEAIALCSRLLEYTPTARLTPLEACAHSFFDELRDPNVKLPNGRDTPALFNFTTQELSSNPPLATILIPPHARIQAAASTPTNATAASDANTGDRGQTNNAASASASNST
# protocol: GSK3β ATP depletion assay
# Type: biochemical
# run conditions: read-out: GSK3b IC50
pIC50: −log10 of the molar value.
Threshold check on pIC50: at or above 6 gives Criterion met, strictly below gives Criterion not met.

| compound | group |
| --- | --- |
| O=C(Nc1cnccc1C1OCCCO1)c1csc(-c2c(F)cccc2F)n1 | Criterion not met |
| O=C(Nc1cnccc1[C@H]1C[C@@H](O)CCO1)c1ccc(F)c(-c2c(F)cccc2F)n1 | Criterion met |
| COC[C@H]1O[C@@H](c2ccncc2NC(=O)c2ccc(F)c(-c3c(F)cccc3F)n2)C[C@@H](O)[C@@H]1O | Criterion not met |

API: above_or_equal(metric=pIC50, cutoff=6) for item C[C@@H]1O[C@H](c2ccncc2NC(=O)c2ccc(F)c(-c3c(F)cccc3F)n2)C[C@@H](O)[C@H]1O
Criterion met

API: above_or_equal(metric=pIC50, cutoff=6) for item C[C@@H]1O[C@H](c2ccncc2NC(=O)c2csc(-c3c(F)cccc3F)n2)C[C@H](O)[C@@]1(C)O (stereo in doubt)
Criterion met

====

# system under test: FLT3D835Y kinase (Homo sapiens, UniProt P36888, D835Y)
# protocol: FLT3D835Y kinase inhibition assay (LanthaScreen TR-FRET)
# run conditions: read-out: FLT3 IC50
quantity name: pIC50
Please treat pIC50 as minus the base-10 logarithm of the molar concentration.

| compound | pIC50 |
| --- | --- |
| Nc1ncc(-c2ccccc2)nc1C(=O)Nc1cnccc1[C@H]1C[C@@H](O)[C@@]2(O)CCCC[C@H]2O1 [Example 173] | 8.13 |
| C[C@@H]1O[C@H](c2ccncc2NC(=O)c2nc(-c3ccccc3)cnc2N)C[C@H](N)[C@@]1(C)O [Example 229] | 7.03 |
| Nc1cnc(-c2c(F)cccc2F)nc1C(=O)Nc1cnccc1[C@H]1C[C@@H](N)[C@@]2(O)CCC[C@H]2O1 [Example 213] | 5.46 |
| CC1(C)C[C@@H](N)C[C@H](c2ccncc2NC(=O)c2nc(-c3ccccc3)cnc2N)O1 [Example 296] | 9.10 |
| CC[C@@H]1O[C@H](c2ccncc2NC(=O)c2nc(-c3ccccc3)cnc2N)C[C@H](N)[C@H]1O [Example 342] | 7.92 |
| CC(C)[C@@H]1O[C@H](c2ccncc2NC(=O)c2nc(-c3ccccc3)cnc2N)C[C@H](N)[C@H]1O [Example 240] | 5.92 |
| Nc1ncc(-c2ccccc2)nc1C(=O)Nc1cnccc1[C@@H]1C[C@H](O)[C@]2(O)CCCC[C@@H]2O1 [Example 176] | 5.96 |
| Nc1ncc(-c2ccccc2)nc1C(=O)Nc1cnccc1[C@H]1C[C@@H](O)[C@H](O)[C@@H](CO)O1 [Example 341] | 6.92 |
| C[C@H]1O[C@@H](c2ccncc2NC(=O)c2ccc(F)c(-c3c(F)cccc3F)n2)C[C@@H](N)[C@]1(C)O [Example 219] | 5.77 |
| CC1(C)C[C@H](N)C[C@@H](c2ccncc2NC(=O)c2nc(-c3ccccc3)cnc2N)O1 [Example 297] | 7.64 |

Please report the recorded pIC50 for CC(C)(C)[C@@H]1O[C@H](c2ccncc2NC(=O)c2nc(-c3ccccc3)cnc2N)C[C@H](N)[C@H]1O [Example 355] .
5.59

Please report the recorded pIC50 for C[C@@]1(O)[C@@H](N)C[C@@H](c2ccncc2NC(=O)c2nc(-c3ccccc3)cnc2N)O[C@H]1C1CC1 [Example 347] .
6.11

Please report the recorded pIC50 for N[C@H]1C[C@@H](c2ccncc2NC(=O)c2csc(-c3c(F)cccc3F)n2)O[C@H]2CCC[C@H]21 [Example 230] .
6.57

Please report the recorded pIC50 for Nc1ncc(-c2ccccc2)nc1C(=O)Nc1cnccc1[C@H]1C[C@@H](N)[C@@]2(O)CCCC[C@H]2O1 [Example 197] .
8.85

Please report the recorded pIC50 for CC(C)[C@H]1O[C@@H](c2ccncc2NC(=O)c2nc(-c3ccccc3)cnc2N)C[C@@H](N)[C@@H]1O [Example 356] .
8.24

Please report the recorded pIC50 for CC[C@H]1O[C@@H](c2ccncc2NC(=O)c2nc(-c3ccccc3)cnc2N)C[C@@H](N)[C@]1(C)O [Example 348] .
7.77

Please report the recorded pIC50 for C[C@]1(O)[C@@H](N)C[C@H](c2ccncc2NC(=O)c2nc(-c3ccccc3)cnc2N)OC12CC2 [Example 351] .
8.30

Please report the recorded pIC50 for Nc1ncc(-c2ccccc2)nc1C(=O)Nc1cnccc1[C@H]1C[C@@H](O)[C@@]2(O)CCC[C@H]2O1 [Example 195] .
8.46

====

Recorded IC50 by entry
# system under test: PIM1 (Homo sapiens, UniProt P11309)
# Sequence (P11309 whole entry): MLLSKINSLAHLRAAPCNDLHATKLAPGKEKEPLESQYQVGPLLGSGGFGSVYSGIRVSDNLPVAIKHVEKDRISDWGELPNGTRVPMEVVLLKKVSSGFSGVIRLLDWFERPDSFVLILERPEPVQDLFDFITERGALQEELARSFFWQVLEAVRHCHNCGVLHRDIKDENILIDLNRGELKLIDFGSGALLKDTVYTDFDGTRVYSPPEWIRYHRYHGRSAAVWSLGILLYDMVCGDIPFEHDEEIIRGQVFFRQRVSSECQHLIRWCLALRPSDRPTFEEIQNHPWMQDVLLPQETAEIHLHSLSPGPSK
# protocol: Pim 1 AlphaScreen assay (high ATP)
# Assay type: biochemical
# run conditions: read-out: Pim1 IC50
Quick reminder: number only, in pM, skip the unit.

| mol smiles | IC50 / pM |
| --- | --- |
| CC(C)[C@H]1O[C@@H](c2ccncc2NC(=O)c2ccc(F)c(-c3c(F)cccc3F)n2)C[C@@H](N)[C@@H]1O | 150 |
| CC(C)[C@H]1O[C@@H](c2ccncc2NC(=O)c2ccc(F)c(-c3ccc(C#N)cc3F)n2)C[C@@H](N)[C@@H]1O | 2000 |

Now for the compound whose IC50 we want.
Please report the recorded IC50 for Nc1cc(F)c(-c2c(F)cccc2F)nc1C(=O)Nc1cnccc1[C@H]1C[C@@H](N)[C@@]2(O)CCC[C@H]2O1 .
140

====

Recorded IC50 by entry
# system under test: PIM1 (Homo sapiens, UniProt P11309)
# protocol: Pim 1 AlphaScreen assay (high ATP)
# Type: biochemical
# run conditions: read-out: Pim1 IC50
Quick reminder: number only, in nM, skip the unit.

As a guide, the following entries are already answered.
| molecule | value unit | IC50 |
| --- | --- | --- |
| CC(C)(C)[C@H]1O[C@@H](c2ccncc2NC(=O)c2nc(-c3c(F)cccc3F)ncc2N)C[C@@H](N)[C@@H]1O [Example 260] | nM | 0.34 |
| C[C@H]1O[C@@H](c2ccncc2NC(=O)c2ccc(F)c(-c3ccc(S(C)(=O)=O)cc3)n2)C[C@@H](N)[C@]1(C)O [Example 321] | nM | 4.7 |

Please report the recorded IC50 for Nc1cc(F)c(-c2c(F)cccc2F)nc1C(=O)Nc1cnccc1[C@H]1C[C@@H](N)[C@@]2(O)CCCC[C@H]2O1 [Example 238] .
0.08

====

# system under test: PIM2 (Homo sapiens)
# Sequence (Q9P1W9 whole entry): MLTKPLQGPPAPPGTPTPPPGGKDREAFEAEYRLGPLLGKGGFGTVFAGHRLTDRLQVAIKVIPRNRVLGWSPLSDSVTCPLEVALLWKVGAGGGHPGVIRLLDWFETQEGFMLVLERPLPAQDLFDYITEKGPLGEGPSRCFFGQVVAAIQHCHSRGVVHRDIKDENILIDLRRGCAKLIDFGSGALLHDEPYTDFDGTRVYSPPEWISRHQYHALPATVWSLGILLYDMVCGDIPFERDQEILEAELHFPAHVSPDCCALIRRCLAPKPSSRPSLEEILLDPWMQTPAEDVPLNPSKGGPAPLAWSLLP
# protocol: Pim 2 AlphaScreen assay (high ATP)
# Assay type: biochemical
# run conditions: read-out: Pim2 IC50
# Experimental: Pim1, Pim2, Pim3 AlphaScreen Assay Pim 1, Pim 2 & Pim 3 AlphaScreen assays using high ATP (11-125×ATP Km) were used to determine the biochemical activity of the inhibitors. The activity of Pim 1, Pim 2, & Pim 3 is measured using a homogeneous bead based system quantifying the amount of phosphorylated peptide substrate resulting from kinase-catalyzed phosphoryl transfer to a peptide substrate. […]
Please note: IC50 exactly at 100 nM is FALSE. Only values below 100 nM get TRUE.

| compound | group |
| --- | --- |
| CC(C)[C@H]1O[C@@H](c2ccncc2NC(=O)c2ccc(F)c(-c3ccc(C#N)cc3F)n2)C[C@@H](N)[C@@H]1O | FALSE |

# TODO verify IC50 < 100 nM strictly for this compound: C[C@@H]1O[C@H](c2ccncc2NC(=O)c2ccc(F)c(-c3c(F)cccc3F)n2)C[C@H](N)[C@@]1(C)O
FALSE

# TODO verify IC50 < 100 nM strictly for this compound: C[C@]1(O)[C@H](N)C[C@H](c2ccncc2NC(=O)c2ccc(F)c(-c3c(F)cccc3F)n2)OC12CC2 [Example 289]
FALSE

====

# system under test: PIM1 (Homo sapiens, UniProt P11309)
# protocol: Pim 1 AlphaScreen assay (high ATP)
# Type: biochemical
# run conditions: read-out: Pim1 IC50
pIC50: −log10 of the molar value.
Our labelling divides records by pIC50 into ranges: interval 1: < 9; interval 2: ≥ 9 and < 10; interval 3: ≥ 10

Study these solved cases before continuing.
| compound | system under test | group |
| --- | --- | --- |
| CC(C)[C@@H]1C[C@H](N)CC(c2ccncc2NC(=O)c2ccnc(-c3c(F)cccc3F)n2)O1 (stereo in doubt) [Example 328] | PIM1 (Homo sapiens, UniProt P11309) | interval 1 |
| CC(C)(C)[C@H]1O[C@@H](c2ccncc2NC(=O)c2ccc(F)c(-c3c(F)cccc3F)n2)C[C@@H](N)[C@@H]1O [Example 255] | PIM1 (Homo sapiens, UniProt P11309) | interval 3 |
| COc1cc(F)c(-c2nc(C(=O)Nc3cnccc3[C@H]3C[C@@H](N)[C@](C)(O)[C@@H](C)O3)ccc2F)c(F)c1 [Example 242] | PIM1 (Homo sapiens, UniProt P11309) | interval 3 |
| N[C@@H]1C[C@H](c2ccncc2NC(=O)c2ccc(F)c(-c3c(F)cccc3F)n2)O[C@H](C2CC2)[C@H]1O [Example 235] | PIM1 (Homo sapiens, UniProt P11309) | interval 2 |

Band for C[C@@H]1O[C@H](c2ccncc2NC(=O)c2ccc(F)c(-c3c(F)cccc3F)n2)C[C@H](N)[C@@]1(C)O [Example 220] ?
interval 1

Band for COc1cc(F)c(-c2nc(C(=O)Nc3cnccc3[C@H]3C[C@@H](N)[C@H](O)[C@@H](C4CC4)O3)ccc2F)c(F)c1 [Example 323] ?
interval 2

Band for Nc1cnc(-c2c(F)cccc2F)nc1C(=O)Nc1cnccc1[C@@H]1C[C@H](O)[C@@H](O)C2(CC2)O1 [Example 251] ?
interval 1
